testedSystem: GLP-1 receptor (GLP-1R), primary cAMP assay cell line (human, UniProt P43220 24-463)
assayRemarks: cell-based or functional assay
Starred links: 1 amine or outer side, 2 acyl side, 3 side chain; linkers in the order of their positions; H or OH if unused. Non-standard residues stand in square brackets, D forms with d. Groups on a side chain read outwards from the residue. Primed or numbered codes have the meaning given here. No end group written: not given here. *: point of attachment. γGlu = O=C(O)[C@H](CCC(=O)[*:2])N[*:1]; αMeF = C[C@](N)(Cc1ccccc1)C(=O)O; αMeK = C[C@](N)(CCCCN)C(=O)O; Lauroyl = CCCCCCCCCCCC(=O)*; αMeS = C[C@](N)(CO)C(=O)O; PEG2′ = not defined here; Aib = CC(C)(N)C(=O)O
// boundary case: cAMP Primary assay EC50, n2 equal to 0.06 nM maps to -1; strictly smaller maps to 1

| binder | class |
| --- | --- |
| H[Aib]EGS[αMeF]TSDVSK([PEG2′-PEG2′-γGlu-Lauroyl])YLEGEAA[αMeK]K([PEG2′-PEG2′-γGlu-Lauroyl])FIAK([PEG2′-PEG2′-γGlu-Lauroyl])VVEGG-NH2 [SEQ ID NO: 462] | 1 |
| H[Aib]EGS[αMeF]TSDV[αMeS]SYK([PEG2′-PEG2′-γGlu-Lauroyl])EGK([PEG2′-PEG2′-γGlu-Lauroyl])AA[αMeK]EFIAFK([PEG2′-PEG2′-γGlu-Lauroyl])VEGG-NH2 [SEQ ID NO: 484] | -1 |
| H[Aib]EGS[αMeF]TSDV[αMeS]SK([PEG2′-PEG2′-γGlu-Lauroyl])LEGEAA[αMeK]K([PEG2′-PEG2′-γGlu-Lauroyl])FIAK([PEG2′-PEG2′-γGlu-Lauroyl])VVEGG-NH2 [SEQ ID NO: 466] | 1 |
| H[Aib]EGS[αMeF]TSDV[αMeS]SK([PEG2′-PEG2′-γGlu-Lauroyl])LEGEAA[αMeK]K([PEG2′-PEG2′-γGlu-Lauroyl])FIAFK([PEG2′-PEG2′-γGlu-Lauroyl])VEGG-NH2 [SEQ ID NO: 482] | 1 |
| H[Aib]EGS[αMeF]TSDV[αMeS]SYK([PEG2′-PEG2′-γGlu-Lauroyl])EGK([PEG2′-PEG2′-γGlu-Lauroyl])AA[αMeK]EFIAK([PEG2′-PEG2′-γGlu-Lauroyl])VVEGG-NH2 [SEQ ID NO: 468] | -1 |
